The values you see were collected from patent US20140179664A1.

Task for the reader: assign each of the following molecules its reported pIC50.
Biological target: JAK1 (Homo sapiens, UniProt P23458)
Construct: endogenous in cells
Sequence (P23458 whole entry): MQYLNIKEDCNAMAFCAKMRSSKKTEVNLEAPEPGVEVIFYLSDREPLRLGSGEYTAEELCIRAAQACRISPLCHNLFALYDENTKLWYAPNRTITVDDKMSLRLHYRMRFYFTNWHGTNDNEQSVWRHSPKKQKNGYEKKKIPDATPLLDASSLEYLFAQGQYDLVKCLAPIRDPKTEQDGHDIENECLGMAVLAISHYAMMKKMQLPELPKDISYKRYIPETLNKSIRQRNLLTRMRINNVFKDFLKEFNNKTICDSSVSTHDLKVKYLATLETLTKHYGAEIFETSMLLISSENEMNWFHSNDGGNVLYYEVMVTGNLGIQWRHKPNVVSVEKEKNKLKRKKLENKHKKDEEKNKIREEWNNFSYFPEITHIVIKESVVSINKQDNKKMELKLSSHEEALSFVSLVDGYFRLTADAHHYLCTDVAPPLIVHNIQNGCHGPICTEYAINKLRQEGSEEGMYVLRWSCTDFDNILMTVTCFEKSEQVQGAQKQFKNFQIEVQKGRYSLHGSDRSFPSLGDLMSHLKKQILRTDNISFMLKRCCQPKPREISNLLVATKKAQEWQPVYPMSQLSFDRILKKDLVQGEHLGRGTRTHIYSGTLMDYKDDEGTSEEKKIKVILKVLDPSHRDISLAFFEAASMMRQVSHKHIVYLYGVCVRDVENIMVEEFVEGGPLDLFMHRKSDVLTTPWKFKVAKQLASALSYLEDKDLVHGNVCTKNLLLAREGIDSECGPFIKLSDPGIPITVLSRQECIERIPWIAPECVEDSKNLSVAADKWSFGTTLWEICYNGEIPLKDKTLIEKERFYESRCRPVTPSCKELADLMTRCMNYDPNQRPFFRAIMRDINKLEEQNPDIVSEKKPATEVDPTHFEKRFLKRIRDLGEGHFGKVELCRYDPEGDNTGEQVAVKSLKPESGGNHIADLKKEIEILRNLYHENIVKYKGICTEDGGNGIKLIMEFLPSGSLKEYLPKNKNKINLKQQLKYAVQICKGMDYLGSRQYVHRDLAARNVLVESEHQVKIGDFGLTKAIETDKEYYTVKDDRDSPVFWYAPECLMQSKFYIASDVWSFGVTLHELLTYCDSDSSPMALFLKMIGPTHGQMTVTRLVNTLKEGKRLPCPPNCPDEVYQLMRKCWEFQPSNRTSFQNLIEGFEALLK
Assay: Kinobeads assay, JAK1
Conditions: mixed Molt4/Ramos lysate, read-out: Inhibition values (IC50) JAK1
pIC50: −log10 of the molar value.

Given item CNC(=O)Cn1cc(Nc2ncc(Cl)c(NC(CO)c3cc(F)ccc3F)n2)cn1 (stereo not drawn) , the value recorded as its pIC50 is > 7.00

Given item COC(=O)C(Nc1nc(Nc2cnn(C)c2)ncc1Cl)c1ccccc1 (stereo not drawn) , the value recorded as its pIC50 is 5.00 to 6.00

Given item O=C(NCC(F)(F)F)C(Nc1nc(Nc2cnn(CCO)c2)ncc1Cl)c1ccccc1F (stereo not drawn) , the value recorded as its pIC50 is 5.00 to 6.00

Given item Cn1cc(-c2cccc(C(CO)Nc3nc(Nc4cnn(CCO)c4)ncc3Cl)c2)cn1 (stereo not drawn) , the value recorded as its pIC50 is 5.00 to 6.00

Given item CC(C)(O)Cn1cc(Nc2ncc(Cl)c(NC(CO)c3ccccc3F)n2)cn1 (stereo not drawn) , the value recorded as its pIC50 is 5.00 to 6.00

Given item CCNC(=O)[C@@H](Nc1nc(Nc2cnn(CCO)c2)ncc1Cl)c1ccccc1 , the value recorded as its pIC50 is 5.00 to 6.00
